Values from PubChem BioAssay AID1963837

The molecules listed here are annotated with their viability, T/C.
# Tested on: 843126-344-R-J1-PDC complex spheroid viability;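 note: spheroids exposed to drugs for seven days before readout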
# method_notes: Anticancer human tumor 843126-344-R-J1-PDC patient-derived melanoma cell line growth inhibition [POLQ]
# particulars: second compound 0.316 µM; first compound 3.16 µM; hits give low values
readout_kind: viability, T/C (%)

{"molecule": "CC(C)n1c(=O)n(C)c2cnc3cc(F)c(-c4ccc(OCCCN5CCCCC5)nc4)cc3c21 + Nc1ccc(C#CCN(C(=O)Cc2ncc(C(F)(F)F)cc2C(F)(F)F)c2ccc(F)cc2)nn1", "readout_kind": "viability, T/C", "readout_number": 89.2}
{"molecule": "O=c1[nH]cc(F)c(=O)[nH]1 + COC1C(OC(N)=O)C(O)C(Oc2ccc3c(O)c(NC(=O)c4ccc(O)c(CC=C(C)C)c4)c(=O)oc3c2C)OC1(C)C", "readout_kind": "viability, T/C", "readout_number": 75.3}
{"molecule": "CC(C)n1c(=O)n(C)c2cnc3cc(F)c(-c4ccc(OCCCN5CCCCC5)nc4)cc3c21 + COC1C(OC(N)=O)C(O)C(Oc2ccc3c(O)c(NC(=O)c4ccc(O)c(CC=C(C)C)c4)c(=O)oc3c2C)OC1(C)C", "readout_kind": "viability, T/C", "readout_number": 70.3}
{"molecule": "COc1cc2cc(C(=O)CCC(=O)O)sc2cc1OC + COC1C(OC(N)=O)C(O)C(Oc2ccc3c(O)c(NC(=O)c4ccc(O)c(CC=C(C)C)c4)c(=O)oc3c2C)OC1(C)C", "readout_kind": "viability, T/C", "readout_number": 89}
{"molecule": "O=C(Nc1ccc(O)c(NS(=O)(=O)c2ccc(F)cc2)c1)c1ccc(-c2ccccc2)cc1 + COC1C(OC(N)=O)C(O)C(Oc2ccc3c(O)c(NC(=O)c4ccc(O)c(CC=C(C)C)c4)c(=O)oc3c2C)OC1(C)C", "readout_kind": "viability, T/C", "readout_number": 91.8}
